Origin of the recorded values: PubChem BioAssay (Tox21)

- Experiment Notes: cAMP Responsive Elements (CRE) small molecule agonists, cell-based qHTS assay: qHTS cell viability counter screen (AID 2060914);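 further: viability read after 3 h of compound exposure; on the % scale 0 is the no-effect control and ±100 the full control effect; nearly all actives have a fitted effect of over 50% in size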
- Details: CRE-bla HEK293T viability, CellTiter-Glo luminescence, 5 h; series mostly up to 92.4 µM
Results filed as inconclusive are left out. Active and inactive are the calls of the source. The call rests on the fitted dose curve; in most records, active means well fitted cell-killing curve with a large enough effect in the repeat runs; inconclusive means weak or mixed curves, or effect the other way; inactive means flat fitted curve, though single readings scatter.
Attribute Measured: activity change, negative = cytotoxicity

Some solved entries appear below for comparison.
- Smiles Repr: "CN(C)/N=N/c1nc[nH]c1C(N)=O"
  activity change, negative = cytotoxicity: "inactive"
- Smiles Repr: "C=C1CC[C@H]2C[C@@H]1C2(C)C"
  activity change, negative = cytotoxicity: "inactive"
- Smiles Repr: "CCCCCCCCCCCCCCCCCBr"
  activity change, negative = cytotoxicity: "1.37% [at 18.9 µM] (inactive)"
- Smiles Repr: "C=C(C)[C@H]1CC=C(C)CC1"
  activity change, negative = cytotoxicity: "inactive"
- Smiles Repr: "CCCCc1ccc(Cl)cc1"
  activity change, negative = cytotoxicity: "inactive"

q: Which value of activity change, negative = cytotoxicity has been reported for CCCCCCCCN(C)C in the records?
a: inactive

q: Recorded activity change, negative = cytotoxicity of CCC(CO)CO , please.
a: inactive

q: Recorded activity change, negative = cytotoxicity of CCCCCCCCO[C@@H]1O[C@H](CO)[C@@H](O)[C@H](O)[C@H]1O , please.
a: inactive
